Reported log10 IC50 values for a set of compounds
Molecular target: Androgen receptor (Homo sapiens, UniProt P10275)
Hey, these are logged values: log10 of IC50, nM being the unit before logging.

Cc1ccccc1Sc1ccc(C#N)c(C(F)(F)F)c1 | 2.09

log10 IC50 lookup needed for COc1cc(SC(C)C)ccc1C#N , thanks.
1.00

One more compound: COc1cc(Oc2ccccc2C)ccc1C#N
1.91

Now the compound N#Cc1ccc(SCC2CCC2)cc1C(F)(F)F
2.85

Now the compound N#Cc1ccc(SC2CCC2)cc1C(F)(F)F
2.22

Also N#Cc1ccc(SCC2CC2)cc1C(F)(F)F , if possible.
2.12

====

Target: Androgen receptor (Homo sapiens, UniProt P10275)
Sequence (P10275 whole entry): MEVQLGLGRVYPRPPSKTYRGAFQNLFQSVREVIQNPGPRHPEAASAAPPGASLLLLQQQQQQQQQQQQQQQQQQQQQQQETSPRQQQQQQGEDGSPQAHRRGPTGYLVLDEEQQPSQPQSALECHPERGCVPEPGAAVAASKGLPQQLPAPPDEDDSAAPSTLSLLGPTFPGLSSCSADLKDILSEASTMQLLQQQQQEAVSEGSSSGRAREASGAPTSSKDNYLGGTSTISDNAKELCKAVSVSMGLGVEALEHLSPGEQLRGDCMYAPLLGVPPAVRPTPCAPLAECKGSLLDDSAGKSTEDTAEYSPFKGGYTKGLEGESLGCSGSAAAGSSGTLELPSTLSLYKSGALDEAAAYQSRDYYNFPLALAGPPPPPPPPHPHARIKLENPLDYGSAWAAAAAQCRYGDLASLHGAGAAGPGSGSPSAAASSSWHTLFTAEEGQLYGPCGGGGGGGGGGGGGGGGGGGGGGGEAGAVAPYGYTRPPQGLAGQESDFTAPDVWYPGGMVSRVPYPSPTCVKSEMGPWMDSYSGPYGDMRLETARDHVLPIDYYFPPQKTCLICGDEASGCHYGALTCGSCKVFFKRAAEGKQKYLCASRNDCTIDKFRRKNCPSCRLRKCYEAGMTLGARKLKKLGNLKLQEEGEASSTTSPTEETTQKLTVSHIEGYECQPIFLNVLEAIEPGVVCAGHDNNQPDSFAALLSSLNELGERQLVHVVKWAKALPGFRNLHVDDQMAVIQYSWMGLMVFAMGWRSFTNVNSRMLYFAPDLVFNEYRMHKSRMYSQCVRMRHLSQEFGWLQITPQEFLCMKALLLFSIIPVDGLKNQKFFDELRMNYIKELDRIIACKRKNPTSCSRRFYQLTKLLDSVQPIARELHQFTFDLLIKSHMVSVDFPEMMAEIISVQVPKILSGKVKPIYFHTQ
Test: biochemical
Description: Displacement of [3H]DHT from human cloned androgen receptor expressed in Sf9 cells
pIC50: −log10 of the molar value.
Output 1.0 for pIC50 not less than 7; output 0.0 otherwise.

Look over these answered cases.
COc1cc(Oc2ccccc2C)ccc1C#N | 1.0
Cc1ccccc1Sc1ccc(C#N)c(C(F)(F)F)c1 | 0.0
CC(C)Sc1ccc(C#N)c(C(F)(F)F)c1 | 1.0
Cc1ccccc1[S+]([O-])c1ccc(C#N)cc1Cl (stereo not drawn) | 0.0
N#Cc1ccc(SC2CCC2)cc1C(F)(F)F | 0.0

Is it the case that COc1cc(Oc2ccc(C)cc2)ccc1C#N has pIC50 reaching or exceeding 7?
0.0

Then this compound: COc1cc(C#N)ccc1Oc1cccc(C)c1
0.0

Next compound up: COc1cc(SCC2CC2)ccc1C#N
0.0

Could you do the same for COc1ccccc1Sc1ccc(C#N)c(C(F)(F)F)c1 , please?
1.0

====

Reported values of pIC50 for individual entries
Molecular target: Androgen receptor (Homo sapiens, UniProt P10275)
Experiment: biochemical
In textbook form, pIC50 equals minus log to base ten of the concentration in mol/L.

CC(C)CCSc1ccc(C#N)c(C(F)(F)F)c1 | 6.28
COc1cc(C#N)ccc1Oc1ccccc1C | 6.94
CC(C)(C)Sc1ccc(C#N)c(C(F)(F)F)c1 | 6.50

Recorded pIC50 of COc1cc(Oc2cccc(C)c2)ccc1C#N , please.
7.24

Follow-up entry: COc1cc(SCC2CCC2)ccc1C#N
6.36

Another compound to check: COc1cc(SC(C)C)ccc1C#N
7.54

Now try Cc1cc(C)c(Sc2ccc(C#N)c(C(F)(F)F)c2)c(C)c1 .
5.87

====

System: Syrian golden hamster
Assay: Reduction of cholesterol ester production in Syrian hamster ear topically dosed at 1% twice daily for 5 days per week for two weeks measured after 18 to 24 hrs of final dose by HPLC lipid analysis
Type: functional, Mesocricetus auratus
Parameters: scale not given: the % may be the effect or the level left
MEASURED_PROPERTY: Activity (%)
Entry rule: numbers only, all in %.

Below are worked cases with known answers.
N#Cc1ccc(SCC2CC2)cc1C(F)(F)F | 35
CC(C)Sc1ccc(C#N)c(C(F)(F)F)c1 | 40
COc1cc(SC(C)C)ccc1C#N | 46
COc1cc(Sc2c(C)cccc2C)ccc1C#N | 45

Here is another compound to look at.
Tell me the measured Activity of N#Cc1ccc(Sc2ccccc2F)cc1C(F)(F)F , please.
50

====

Biological target: Androgen receptor (Homo sapiens, UniProt P10275)
MEASURED_PROPERTY: pIC50
Notebook: values listed as pIC50 are -log10 of the concentration (mol/L).

Observe how each entry below is paired with its result.
COc1cc(C#N)ccc1Oc1ccccc1C | 7.32
Cc1ccccc1Sc1ccc(C#N)cc1Cl | 7.11
COc1cc(SCC2CC2)ccc1C#N | 7.26
COc1cc(Sc2ccccc2OC)ccc1C#N | 7.46

Query (compound): N#Cc1ccc(Sc2ccccc2F)cc1C(F)(F)F ; field requested: pIC50
7.27

====

Target: Androgen receptor (Homo sapiens)
Sequence (P10275 whole entry): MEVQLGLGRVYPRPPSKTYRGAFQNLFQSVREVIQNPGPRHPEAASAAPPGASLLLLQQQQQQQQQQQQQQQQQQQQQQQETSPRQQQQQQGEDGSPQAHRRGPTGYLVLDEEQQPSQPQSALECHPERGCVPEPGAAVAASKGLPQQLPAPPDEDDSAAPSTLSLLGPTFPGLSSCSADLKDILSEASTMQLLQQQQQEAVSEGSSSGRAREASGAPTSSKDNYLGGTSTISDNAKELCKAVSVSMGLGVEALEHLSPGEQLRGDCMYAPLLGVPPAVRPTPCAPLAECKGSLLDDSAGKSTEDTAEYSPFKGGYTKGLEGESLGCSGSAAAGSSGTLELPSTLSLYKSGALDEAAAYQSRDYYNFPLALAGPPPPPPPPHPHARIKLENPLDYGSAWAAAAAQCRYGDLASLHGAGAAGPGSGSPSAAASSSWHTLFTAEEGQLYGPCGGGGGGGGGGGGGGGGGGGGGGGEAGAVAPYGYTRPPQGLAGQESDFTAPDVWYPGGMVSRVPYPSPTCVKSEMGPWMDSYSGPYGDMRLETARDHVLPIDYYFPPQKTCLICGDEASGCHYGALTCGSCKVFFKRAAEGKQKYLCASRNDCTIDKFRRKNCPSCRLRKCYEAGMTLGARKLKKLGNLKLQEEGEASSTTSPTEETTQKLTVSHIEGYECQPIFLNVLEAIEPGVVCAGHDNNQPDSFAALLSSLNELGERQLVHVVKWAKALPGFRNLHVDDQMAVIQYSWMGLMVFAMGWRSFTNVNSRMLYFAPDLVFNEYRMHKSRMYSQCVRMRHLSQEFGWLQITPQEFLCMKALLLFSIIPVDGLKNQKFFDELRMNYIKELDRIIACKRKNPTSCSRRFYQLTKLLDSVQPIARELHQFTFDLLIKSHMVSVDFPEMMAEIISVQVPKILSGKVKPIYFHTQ
Assay: biochemical
Define the label as Fulfilled when IC50 is strictly less than 40 nM and as Not fulfilled in all remaining cases.

Reference set, count: 5
CCCCSc1ccc(C#N)c(OC)c1 | Not fulfilled
Cc1cccc(C)c1Sc1ccc(C#N)c(C(F)(F)F)c1 | Not fulfilled
COc1cc(SCCC(C)C)ccc1C#N | Not fulfilled
N#Cc1ccc(SCC2CC2)cc1C(F)(F)F | Fulfilled
CCCCSc1ccc(C#N)c(C(F)(F)F)c1 | Not fulfilled

Record Cc1ccccc1Sc1ccc(C#N)cc1Cl : is its IC50 strictly below 40 nM?
Not fulfilled

How about N#Cc1ccc(Sc2ccccc2F)cc1C(F)(F)F ?
Not fulfilled

====

As an illustration, consider measured IC50 for compounds on Androgen receptor (Homo sapiens, UniProt P10275).
Give just the numeric value; nM need not be written.

Query IC50 on Androgen receptor (Homo sapiens, UniProt P10275) for COc1cc(Sc2c(C)cccc2C)ccc1C#N
30

Here is the next compound: COc1ccccc1Sc1ccc(C#N)c(C(F)(F)F)c1
37

And the next one, CCCCSc1ccc(C#N)c(C(F)(F)F)c1 ?
838

Please do the same for CC(C)Sc1ccc(C#N)c(C(F)(F)F)c1 as well.
89

Continue with CCCSc1ccc(C#N)c(C(F)(F)F)c1
11

Then what about the compound COc1cc(Sc2c(C)cc(C)cc2C)ccc1C#N ?
69

Proceed to COc1cc(Oc2cccc(C)c2)ccc1C#N
197

Same question for COc1cc(Oc2ccc(C)cc2)ccc1C#N please.
209

Next up: CCCCSc1ccc(C#N)c(OC)c1
66
